Recorded values, source PubChem BioAssay (NCI).

# reported growth; entries follow
Tested on: SF-268 CNS
Measurement Protocol: NCI-60 one-dose screen, 48 h (100 = growth as untreated, 0 = no growth, -100 = all killed)
Condition: 10 µM unless noted
Compounds without any hit were thinned out: in the full panel of roughly 83,000, 20% have a hit. Activity calls are given as the source filed them. The calls were made as follows: active = growth percent below 10; inactive = the rest.

Consider the reported growth for these molecules:
[
  {
    "Molecule": "CC(=O)c1nc2ccccc2n1CC(=O)c1cccc(Cl)c1",
    "growth": "13.2% (inactive)"
  },
  {
    "Molecule": "Nc1n[nH]c2cc(F)c([C@@H]3Nc4ccc5[nH]ncc5c4[C@H]4C5CCC(C5)[C@@H]34)cc12 (some centres undefined)",
    "growth": "9.83% (active)"
  },
  {
    "Molecule": "Cc1nn(-c2ccc(F)cc2)c2ncnc(Oc3ccc(NC(=O)Nc4ccc(Cl)c(C(F)(F)F)c4)cc3)c12",
    "growth": "93.4% (inactive)"
  },
  {
    "Molecule": "CC(C)CC1C(=O)N2CCC[C@H]2C2(O)O[C@](NC(=O)C3C=C4c5cccc6[nH]c(Br)c(c56)C[C@H]4N(C)C3)(C(C)C)C(=O)N12 (some centres undefined)",
    "growth": "55.8% (inactive)"
  },
  {
    "Molecule": "COc1cc2c(cc1OC)C(Sc1ccc(SC)cc1)c1c(nc(N)c(C#N)c1N)O2 (centres undefined)",
    "growth": "-36.6% (active)"
  },
  {
    "Molecule": "NC(=NC1C2CC3CC(C2)CC1C3)Nc1ccc(I)cc1 (centres undefined)",
    "growth": "40.7% (inactive)"
  },
  {
    "Molecule": "N#Cc1c(-c2ccc(Cl)cc2)nc(N/N=C/c2cccc(Br)c2)nc1N1CCOCC1",
    "growth": "89.2% (inactive)"
  },
  {
    "Molecule": "O=c1cc(CSc2nnc(SCc3cc(=O)oc4c3ccc3ccccc34)o2)c2ccc3ccccc3c2o1",
    "growth": "96.7% (inactive)"
  }
]

Here is the next item to consider.
Observed growth on SF-268 CNS, entry O=C(NCCN1CCOCC1)Nc1ccc(-c2cc3c(Nc4ccc(Oc5cccc(C(F)(F)F)c5)c(Cl)c4)ncnc3s2)cc1 , equals 29.3% (inactive)

* * *

Tested on: SN12C renal
Measurement Protocol: NCI-60 one-dose screen, 48 h
Condition: 10 µM unless noted
This is part of a sample that, as a whole, favours compounds with a hit. Of some 83,000 tested, about 20% had one in any assay. The source made the active and inactive calls. The calls were made as follows: active = growth percent below 10; inactive = the rest.
Write down one outcome, taken from active, inactive

Completed entries (count: 2):
[
  {
    "Compound": "Cc1cc(C)nc(SC2=C(Nc3cccc(Cl)c3C)C(=O)N(Cc3ccccc3)C2=O)n1",
    "Target Or System": "SN12C renal",
    "Label Value": "inactive"
  },
  {
    "Compound": "COc1ccc(S(=O)(=O)N2CCCCCC2)cc1NC(=O)c1[nH]c(C)c2c1CCCCC2=O",
    "Target Or System": "SN12C renal",
    "Label Value": "inactive"
  }
]

Ask: Hi, sorry to bother you, what did the test record for C=C1c2nc3ccccc3n2C=C(c2ccc(Cl)cc2)N1Cc1ccc(OC)cc1 ?
Reply: inactive

Ask: Hi, sorry to bother you, what did the test record for COc1ccc(-c2nc3ccc(-c4nc5ccc(N6CCN(c7ccccc7)CC6)cc5[nH]4)cc3[nH]2)cc1OC ?
Reply: inactive

Ask: Hi, sorry to bother you, what did the test record for CCCCC(=O)OCC1OC(n2cnc3c(=S)nc[nH]c32)C(OC(=O)CCCC)C1OC(=O)CCCC (stereo not given) ?
Reply: inactive

Ask: Hi, sorry to bother you, what did the test record for CC(=O)OCCC/C(=C/c1cc2ccccc2c2ccccc12)[N+](=O)[O-] ?
Reply: active

Ask: Hi, sorry to bother you, what did the test record for O=C(/C=C/c1ccc(C(F)(F)F)cc1)Nc1ccc(C=C2c3ccccc3C(=O)c3ccccc32)cc1 ?
Reply: inactive

Ask: Hi, sorry to bother you, what did the test record for CCCOc1cc2ccccc2cc1C(=O)Nc1nc(N)c2c(ccc3nccc32)[nH]1 ?
Reply: active

Ask: Hi, sorry to bother you, what did the test record for O=C(NCCN1CCOCC1)Nc1ccc(-c2cc3c(Nc4ccc(Oc5cccc(C(F)(F)F)c5)c(Cl)c4)ncnc3s2)cc1 ?
Reply: inactive

Ask: Hi, sorry to bother you, what did the test record for COc1cccc(-c2nc3sccn3c2-c2ccnc(NCCNS(=O)(=O)c3ccccc3)c2)c1 ?
Reply: inactive

Ask: Hi, sorry to bother you, what did the test record for Cc1cc(N[C@@H]2CCC[C@H](Nc3ccnc4cc(Cl)ccc34)C2)nc(N2CCCCCC2)n1 ?
Reply: active

Ask: Hi, sorry to bother you, what did the test record for COc1ccc(N=Nc2nccs2)c(O)c1 ?
Reply: inactive

Ask: Hi, sorry to bother you, what did the test record for C#CCOc1ccc2ncnc(N3CCN(C(=O)CCl)CC3)c2c1 ?
Reply: inactive

Ask: Hi, sorry to bother you, what did the test record for O=C1/C(=C/N2N=C(c3ccc4ccccc4c3)CC2c2ccccc2O)SC(=S)N1c1cccnc1 (stereo not given) ?
Reply: inactive

Ask: Hi, sorry to bother you, what did the test record for CC(C)(C)N1CCC1CN (stereo not given) ?
Reply: inactive

Ask: Hi, sorry to bother you, what did the test record for Cc1cc(C)nc(SC2=C(Nc3cc(Cl)ccc3O)C(=O)N(Cc3ccccc3)C2=O)n1 ?
Reply: inactive

Ask: Hi, sorry to bother you, what did the test record for NC(=O)c1cc(I)ccc1NC(=O)/C=C/c1ccccc1Cl ?
Reply: inactive

Ask: Hi, sorry to bother you, what did the test record for O=C(CCCCC(=O)N/N=C\c1ccccc1O)N/N=C\c1ccccc1O ?
Reply: inactive

Ask: Hi, sorry to bother you, what did the test record for Cc1cc(N2CCN(C)CC2)nc(NC2CCCC(Nc3ccnc4cc(Cl)ccc34)C2)n1 (stereo not given) ?
Reply: active

Ask: Hi, sorry to bother you, what did the test record for Nc1nc2ccc3[nH]ncc3c2c2c1CCCC2 ?
Reply: inactive
